Assay: qHTS Assay for Lipid Storage Modulators in Drosophila S3 Cells; also: potency is read from the fitted curve at half-maximal effect
Conditions: BODIPY lipid droplet fluorescence, 18-24 h, cells fed with added oleic acid; series mostly up to 46.1 µM
The campaign covered roughly 320,000 compounds. About 2,100 (0.66%) were called active. Another 53% or so got no clear call; they are omitted. The sample holds actives, similar compounds and a random draw of the others, so the mix is not that of the screen.
experimental.endpoint: Potency

Use the examples below as a reference point.
CN1/C(=C/C=C(C#N)C#N)C(C)(C)c2ccccc21 | 7.31 µM (active)
CN(c1ccccc1)S(=O)(=O)c1cccc(NC(=O)c2ccncc2)c1 | inactive
O=C(Nc1ccc2c(c1)OCO2)C1CC(c2ccccc2O)=NO1 (configuration not stated) | inactive
CC(=O)N(Cc1cccnc1)Cc1cc2ccc(C)cc2[nH]c1=O | inactive
COc1cccc(-c2cccc(NC(=O)C3CCN(Cc4ccc(CO)o4)CC3)c2)c1 | inactive
COC(=O)c1ccc(Cc2ccccc2)o1 | 25.9 µM (active)
COC(=O)C1=C(C)N(Cc2ccccc2)C(=NCc2cccc(Cl)c2)N[C@H]1c1ccccc1 | inactive
Cc1ccc(CSCCNS(=O)(=O)c2ccc([N+](=O)[O-])cc2)cc1 | inactive
CC(=O)c1sc2nsc(SCCN3CCCC3)c2c1N | inactive
O=C(CN1C(=O)NC2(CCCC2)C1=O)Nc1ccccc1F | inactive

Could you share which Potency value was measured for CC(C)c1c(C(=O)N/N=C/c2cccc(OCc3ccc(F)cc3)c2)nnn1-c1nonc1N ?
inactive

Entry CN1/C(=C/C=C(/C#N)C(N)=O)C(C)(C)c2ccccc21 has what Potency?
inactive

For Nc1nonc1-n1nnc(C(=O)N/N=C/c2ccccc2Br)c1CN1CCCC1 , what is its reported Potency?
inactive

Any idea what its Potency is? The compound is Cc1cc(N2CCN(c3ccccc3)CC2)n2cc(-c3ccccc3)nc2n1
inactive

Can you share its Potency? I mean this compound: CCn1cc(C2=NOC(C(=O)Nc3ccc4c(c3)OCO4)C2)c(C)n1 (configuration not stated)
7.31 µM (active)

###

Can you tell me cell number change for the items I'm about to list?
Experiment: qHTS Assay for Lipid Storage Modulators in Drosophila S3 Cells;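 as to cell number change: cells counted by Cell Tracker Red CMTPX staining in the red channel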
Settings: BODIPY lipid droplet fluorescence, 18-24 h, cells fed with added oleic acid; measured here: cell count max response
Screen size: about 320,000 compounds; about 2,100 (0.66%) were called active. Inconclusive results (about 53%) are left out. The sample as a whole holds a higher share of actives than the screen did.
# answer = value followed by unit

Any idea what its cell number change is? The compound is Cc1ccc(-c2nnc(SCC(=O)NC3CC3)o2)cc1
10.3%

Find the recorded cell number change belonging to O=C(c1cccc([N+](=O)[O-])c1)N(c1ccccn1)c1ccccn1 and report it.
2.68%

Can you share its cell number change? I mean this compound: O=C(CSc1nnc(-c2ccccc2)o1)NC1CC1
-4.73%

// query cell number change value for entry O=C(NCc1cccnc1)Nc1cccc([N+](=O)[O-])c1
6.23%

###

Assay: qHTS Assay for Lipid Storage Modulators in Drosophila S3 Cells
Conditions: BODIPY lipid droplet fluorescence, 18-24 h, cells fed with added oleic acid; series mostly up to 46.1 µM
In all, about 320,000 compounds went through this assay and about 2,100 (0.66%) were called active. About 53% were inconclusive and are not listed. Calls come from the whole dose curve; as a rule, active = well fitted inhibition curve with a large enough effect in the signal ratio, with a control signal flat (not every such curve was filed as active); inconclusive = small, poorly fitted or top-dose-only effect, or effect the other way, or a change in a side signal; inactive = flat fitted curve, though single readings scatter; the % refers to the signal ratio. This is one part of a sample in which actives are shown more often than they occur.
Write down one outcome, taken from 1 (active), -1 (inactive)

Just curious, what result did O=C1c2ccccc2CN1Cc1ccccc1 get here?
-1

Recorded test call requested for Cc1cc(C)c(S(=O)(=O)Nc2ccccc2C(=O)N2CCOCC2)c(C)c1
1

Just curious, what result did CCOC(=O)CN1C(=O)C2(OCCCO2)c2ccccc21 get here?
1

What classification did Cc1ccccc1NS(=O)(=O)c1ccc(C)c(C(=O)N2CCOCC2)c1 end up with in this test?
-1

Short answer needed: outcome of this test for Cc1cc(C)c(S(=O)(=O)N2CCN(S(=O)(=O)N3CCOCC3)CC2)c(C)c1 ?
-1

Recorded call for Cc1nc(SCC(=O)c2ccc(Cl)cc2)c([N+](=O)[O-])[nH]1 ?
-1

What is the recorded call for this compound in the test? Cc1cc(C)c(S(=O)(=O)N2CCN(C(=O)N3CCOCC3)CC2)c(C)c1
1

Write down the call the test reported for this compound. Item: Cc1ccsc1CNC12CC3CC(CC(C3)C1)C2
-1

Hi, sorry to bother you, what did the test record for Cc1cc(Cl)ccc1NC(=S)NCc1ccco1 ?
-1

What did this assay record as the result for COCCCNC(NC(=O)c1ccc(Cl)cc1)C(Cl)(Cl)Cl (centres undefined) ?
-1

What call does the record list for O=C(/C=C/c1ccco1)N(Cc1ccccc1F)C1CCS(=O)(=O)C1 (centres undefined) ?
-1

What did this assay record as the result for CN(C)S(=O)(=O)N1CCN(S(=O)(=O)N2CCOCC2)CC1 ?
-1

Dear all, I need the recorded test outcome for Cc1ccc(CCNC(=O)CCNS(=O)(=O)c2ccc3c(c2)oc(=O)n3C)cc1 , thank you.
-1

Returns: the outcome recorded for CCOc1ccc(NC(=O)Nc2ccc(NC(C)=O)cc2)cc1 in this assay.
-1

Called result for COc1ccc(-c2cc3nc(C)c(CCC(=O)N4CCN(c5ccccn5)CC4)c(C)n3n2)c(OC)c1
-1

For Cc1cccc(NC(=O)c2cc(Cl)ccc2[N+](=O)[O-])c1 , which call appears in the assay record?
-1

Per the records of this test, what outcome belongs to CN(C)S(=O)(=O)N1CCN(C(=O)N2CCOCC2)CC1 ?
1

State the result this test recorded for COC(=O)c1sccc1NC(=O)CC1C(=O)NCCN1C(=O)Nc1cc(Cl)ccc1OC (centres undefined) .
-1

Hi, do you know how O=c1[nH]c(COc2ccc(Br)cc2Cl)nc2ccccc12 came out in this test?
-1

###

Assay: qHTS Assay for Lipid Storage Modulators in Drosophila S3 Cells
Conditions: BODIPY lipid droplet fluorescence, 18-24 h, cells fed with added oleic acid; series mostly up to 46.1 µM
In all, about 320,000 compounds went through this assay and about 2,100 (0.66%) were called active. Another 53% or so got no clear call; they are omitted. The call rests on the fitted dose curve; in most records, active means well fitted inhibition curve with a large enough effect in the signal ratio, with a control signal flat (not every such curve was filed as active); inconclusive means small, poorly fitted or top-dose-only effect, or effect the other way, or a change in a side signal; inactive means flat fitted curve, though single readings scatter; the % refers to the signal ratio. This excerpt belongs to a sample that is enriched for actives.
In this exercise, the only acceptable responses are label 1 for active, label 0 for inactive

// param item: COC(=O)CSc1nnc(CNS(=O)(=O)c2ccc(Cl)cc2)n1C ; yields the recorded call
label 1

Record lookup: outcome of this test for Cc1ccccc1NCN1C(=O)C2CCC(C)(C1=O)C2(C)C (stereo unspecified) ?
label 0

Hello, I am checking results. What call was entered for CCOC(=O)N1CCC(NC(=O)c2ccc3c(c2)N(C)C(=O)/C(=C/c2cccc(OC)c2)S3)CC1 ?
label 1

Tell me the recorded outcome of this test for CCn1cc(C(=O)NCCCN(CC(C)C)CC(C)C)c(=O)c2cc(S(=O)(=O)N3CCOCC3)ccc21 .
label 0

Status in this test for CCn1cc(C(=O)NCCN(CC(C)C)CC(C)C)c(=O)c2cc(S(=O)(=O)N3CCOCC3)ccc21 ?
label 1

Any idea what this test logged for COCCn1nnnc1C(c1ccccc1OC)N1CCN(c2ccccc2)CC1 (stereo unspecified) ?
label 0

Any idea what this test logged for CC(=O)Nc1ccc(S(=O)(=O)Nc2nccc(C)n2)cc1 ?
label 0

I would be grateful if you could indicate the recorded call for Clc1ccc(-c2nnc(N3CCOCC3)o2)cc1 .
label 0

What classification did CC1(C)COCN1C(=O)c1ccc(C#N)cc1 end up with in this test?
label 0

Field: outcome | Entry: CN1C(=O)/C(=C/c2cccc(Cl)c2)Sc2ccc(C(=O)N3CCOCC3)cc21
label 0

Could you please tell me the result logged for COc1ccc(CN(CC(=O)NC2CCCC2)C(=O)CCC(=O)Nc2cc(C)on2)cc1 in this assay?
label 0

Hi team, can someone confirm the assay call for CC(C)CCNC(=O)CN(CC1CCCO1)C(=O)CCC(=O)Nc1nccs1 (stereo unspecified) ?
label 0

Which outcome was assigned to CC1Sc2ccc(S(=O)(=O)NCCc3ccc(Cl)cc3)cc2NC1=O (stereo unspecified) in this test?
label 0

Hi team, can someone confirm the assay call for CCOC(=O)C1CCN(C(=O)c2cc(COc3ccc(OC)c4ccccc34)on2)CC1 ?
label 0

I would be grateful if you could indicate the recorded call for Cc1csc(NC(=O)CCC(=O)N(CC(=O)NC2CCCC2)Cc2ccco2)n1 .
label 0

How did this test come out for COc1cccc(/C=C2\Sc3ccc(C(=O)NCc4cccnc4)cc3N(C)C2=O)c1 ?
label 0

Assay outcome for CCCSc1nnc(CNS(=O)(=O)c2ccc(C)cc2)n1C : what was it?
label 0

What classification did CC(C)CCNC(=O)CN(Cc1ccccc1)C(=O)CCC(=O)Nc1nccs1 end up with in this test?
label 0

What call does the record list for C/C(=N\NC(=O)c1ccc(-c2ccccc2)cc1)C1C(=O)c2ccccc2C1=O ?
label 0

Which outcome was entered for the molecule O=C(Nc1ccccc1)OC(CN1CCCCC1)C(F)(F)F (stereo unspecified) in this test?
label 0

Can you look up the reported call for COc1ccc(C(=O)NCCCc2ccccc2)cc1OC for me?
label 0

Dear colleague, could you share the recorded outcome for O=C(Nc1ccc(Cl)cc1)C1C2CCC3C(CCC21)C3(Cl)Cl (stereo unspecified) when you have a moment?
label 0

Answer briefly: the call reported for COc1ccc(C(CC(=O)O)NS(=O)(=O)c2ccc(C)cc2)cc1OC (stereo unspecified) in this assay.
label 0

// return assay outcome for O=C(Cn1c2ccccc2c2nc3n(c(=O)c21)CCS3)N1CCCC1
label 0

Hi, do you know how COc1ccc(C(=O)NCCCCCC(=O)O)cc1OC came out in this test?
label 1

So what was the verdict on CN1C(=O)/C(=C/c2cccc(Cl)c2)Sc2ccc(C(=O)N3CCCC3)cc21 in this test?
label 0

Tell me the assay call for CC1(C)CSC(=NCCc2ccccc2)N1C(=O)c1ccc(C#N)cc1 please.
label 1

So what was the verdict on CCC/C(C)=N/NC(=O)c1ccccc1O in this test?
label 0

Please state the recorded outcome for this molecule: COc1ccc(C(CC(=O)O)NS(=O)(=O)c2ccc(C)cc2)cc1 (stereo unspecified)
label 1

Please share the test call associated with Cc1ccc(-n2ncc3c(=O)n(-c4ccc(C)c(C)c4)c(C)nc32)cc1 .
label 0

Identify the outcome logged in this assay for the molecule shown: Cc1oc(/N=C/c2cccc([N+](=O)[O-])c2)c(C#N)c1C
label 1

Kindly provide the recorded test outcome for the following molecule: O=C1ON=C(c2ccccc2)/C1=C/c1cccnc1
label 0

Could you kindly confirm the outcome this assay logged for COc1ccc(-c2cc(C(=O)NN)[nH]n2)cc1OC ?
label 0

So what was the verdict on C[N+]1(C)CC2([N+](=O)[O-])CC=C(Oc3ccccc3)C([N+](=O)[O-])(C2)C1 (stereo unspecified) in this test?
label 0

// param item: CC(=O)Nc1ccc(S(=O)(=O)Nc2nccc(C3Cc4ccccc4C(=O)O3)n2)cc1 (stereo unspecified) ; yields the recorded call
label 1

Test call, this molecule: O=C(CN(Cc1ccccc1)C(=O)CCC(=O)Nc1nccs1)NCc1ccccc1
label 0
